assay: pharmacokinetics of nanoparticles in Wistar Han rats; type: in vivo; settings: rat; male Wistar Han rats, intravenous 1 mg/kg bolus, plasma

compound: CN(C)C1CCN(C(=O)c2ccc(NC(=O)Nc3ccc(-c4nc(N5CCOCC5)nc(N5CCOCC5)n4)cc3)cc2)CC1 [therapeutic agent]
AUC / ng·h/mL: 920

###

experiment: physchem; type: physicochemical; details: pH 6.5

chemicalSmiles: CN(C)C1CCN(C(=O)c2ccc(NC(=O)Nc3ccc(-c4nc(N5CCOCC5)nc(N5CCOCC5)n4)cc3)cc2)CC1
logD: 0.212

###

assay: pharmacokinetics of nanoparticles in Wistar Han rats; type: in vivo; details: rat; male Wistar Han rats, intravenous 1 mg/kg bolus, plasma
readout: half-life (h)

chemicalSmiles: CN(C)C1CCN(C(=O)c2ccc(NC(=O)Nc3ccc(-c4nc(N5CCOCC5)nc(N5CCOCC5)n4)cc3)cc2)CC1
valueUnit: h
quantitativeResult: 13.2

The origin of these recorded values is patent US10071100B2.
